target: GDP-bound KRAS wild-type protein (Homo sapiens, UniProt P01116); assay: Binding to KRAS by surface plasmon resonance (SPR), dissociation constant KD; conditions: Single Cycle Kinetics
Sequence (P01116 1-188 isoform P01116-2): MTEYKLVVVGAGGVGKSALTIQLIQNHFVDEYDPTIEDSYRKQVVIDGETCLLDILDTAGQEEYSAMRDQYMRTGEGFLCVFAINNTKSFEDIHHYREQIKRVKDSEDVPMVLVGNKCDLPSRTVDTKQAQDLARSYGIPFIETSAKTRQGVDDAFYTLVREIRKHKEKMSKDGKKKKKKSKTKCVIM
Could you please mark yes for values of Kd below 800 pM and no for values at or above it?

>>> category("CCO[C@@H]1C[C@H]2C(=O)NC3(CCC3)C(=O)N(C)[C@@H](C3CCCC3)C(=O)N(C)[C@H](C(=O)N3CCOCC3)CC(=O)N(C)[C@@H](COCC(F)(F)F)C(=O)N[C@@H]([C@@H](C)CC)C(=O)N(C)CC(=O)N(C)[C@H]3CCCCCN(C3=O)[C@@H](Cc3ccc(C(F)(F)F)cc3)C(=O)N(C)CC(=O)N[C@@H](CCc3cc(F)c(C(F)(F)F)c(F)c3)C(=O)N2C1")
"yes"
>>> category("CC[C@H](C)[C@@H]1NC(=O)[C@H](COC)N(C)C(=O)C[C@@H](C(=O)N2CCOCC2)N(C)C(=O)[C@H](C2CCCC2)N(C)C(=O)C2(CCC2)NC(=O)[C@@H]2CC(F)(F)CN2C(=O)[C@H](CCc2cc(F)c(C(F)(F)F)c(F)c2)NC(=O)CN(C)C(=O)[C@H](Cc2ccc(C(F)(F)F)cc2)N2CCCCC[C@@H](C2=O)N(C)C(=O)CN(C)C1=O")
"yes"
>>> category("CCO[C@@H]1C[C@H]2C(=O)NC3(CCC3)C(=O)N(C)[C@@H](C3CCCC3)C(=O)N(C)[C@H](C(=O)N3CCOCC3)CC(=O)N(C)[C@@H](Cc3cscn3)C(=O)N[C@@H]([C@@H](C)CC)C(=O)N(C)CC(=O)N(C)[C@H]3CCCCCN(C3=O)[C@@H](Cc3ccc(C(F)(F)F)cc3)C(=O)N(C)CC(=O)N[C@@H](CCc3cc(F)c(C(F)(F)F)c(F)c3)C(=O)N2C1")
"no"

Hello, is Kd of the following compound strictly smaller than 800 pM? CCCO[C@@H]1C[C@H]2C(=O)NC3(CC(C)(C)C3)C(=O)N(C)[C@@H](C3CCCC3)C(=O)N(C)[C@H](C(=O)N(C)CC)CC(=O)N[C@@H](COCC)C(=O)N[C@@H]([C@@H](C)CC)C(=O)N3C[C@@H](F)C[C@H]3C(=O)N(C)[C@H]3C/C=C\CCN(C3=O)[C@@H](Cc3ccc(C)cc3)C(=O)N(C)CC(=O)N[C@@H](CCc3ccc(C(F)(F)F)c(OC)c3)C(=O)N2C1
yes

Please determine if CCO[C@@H]1C[C@H]2C(=O)NC3(CCC3)C(=O)N(C)[C@@H](C3CCCC3)C(=O)N(C)[C@H](C(=O)N(C)C)CC(=O)N(CC)[C@@H](CC(C)C)C(=O)N[C@@H]([C@@H](C)CC)C(=O)N(C)CC(=O)N(C)[C@H]3CC(C)=CCN(C3=O)[C@@H](Cc3ccc(C(F)(F)F)cc3)C(=O)N(C)CC(=O)N[C@@H](CCc3cc(F)c(C(F)(F)F)c(F)c3)C(=O)N2C1 is below 800 pM in terms of Kd.
yes

Confirm or reject: Kd of CCCO[C@@H]1C[C@H]2C(=O)NC3(CC(C)(C)C3)C(=O)N(C)[C@@H](C3CCCC3)C(=O)N(C)[C@H](C(=O)N(C)CC)CC(=O)N(C)[C@@H](COCC)C(=O)N[C@@H]([C@@H](C)CC)C(=O)N3C[C@@H](C)C[C@H]3C(=O)N(C)[C@H]3C/C=C\CCN(C3=O)[C@@H](Cc3ccc(C)cc3)C(=O)N(C)CC(=O)N[C@@H](CCc3ccc(C(F)(F)F)c(Cl)c3)C(=O)N2C1 lies strictly below 800 pM
no

* * *

Reported pKd values follow for various molecules
target: GDP-bound KRAS wild-type protein (Homo sapiens, UniProt P01116); assay: Binding to KRAS by surface plasmon resonance (SPR), dissociation constant KD; settings: Single Cycle Kinetics, 1:1 binding model
Keep in mind that pKd stands for -log10 of concentration in molar terms.

Some solved entries appear below for comparison.
>>> value("CC[C@H](C)[C@@H]1NC(=O)[C@H](CC)N(C)C(=O)C[C@@H](C(=O)N2CCOCC2)N(C)C(=O)[C@H](C2CCCC2)N(C)C(=O)C2(CCC2)NC(=O)[C@@H]2CCCN2C(=O)[C@H](CCc2cc(F)c(C(F)(F)F)c(F)c2)NC(=O)CN(C)C(=O)[C@H](Cc2ccc(C(F)(F)F)cc2)N2C[C@H](C)[C@H](C)C[C@@H](C2=O)N(C)C(=O)CN(C)C1=O")
9.96
>>> value("CCO[C@@H]1C[C@H]2C(=O)NC3(CCC3)C(=O)N(C)[C@@H](C3CCCC3)C(=O)N(C)[C@H](C(=O)N(C)C)CC(=O)N(C)[C@@H](CC(C)(C)C)C(=O)N[C@@H]([C@@H](C)CC)C(=O)N(C)CC(=O)N(C)[C@H]3C/C=C\\CCN(C3=O)[C@@H](CC3CCCCC3)C(=O)N(C)CC(=O)N[C@@H](CCc3cc(F)c(C(F)(F)F)c(F)c3)C(=O)N2C1")
9.64

Next item in the queue.
Please report the recorded pKd for CCO[C@@H]1C[C@H]2C(=O)NC3(CCC3)C(=O)N(C)[C@@H](C3CCCC3)C(=O)N(C)[C@H](C(=O)N(C)C)CC(=O)N(C)[C@@H](CC(C)C)C(=O)N[C@@H]([C@@H](C)CC)C(=O)N(C)CC(=O)N(C)[C@H]3C/C=C\CCN(C3=O)[C@@H](Cc3ccc(C(F)(F)F)cc3)C(=O)N(C)CC(=O)N[C@@H](CCc3ccc(C(F)(F)F)c(OC)c3)C(=O)N2C1 .
10.22

* * *

Target: GDP-bound KRAS wild-type protein (Homo sapiens)
Assay: Binding to KRAS by surface plasmon resonance (SPR), dissociation constant KD
Conditions: Single Cycle Kinetics, 1:1 binding model
Description: Surface plasmon resonance was used to analyze the binding affinity of compounds for KRAS, NRAS, and HRAS. […] The resulting sensorgram was subjected to curve fitting based on a 1:1 binding model on Biacore Insight Evaluation Software or T200 Evaluation Software, and thereby the dissociation constant KD of each compound with respect to KRAS, NRAS, and HRAS was determined. […]
readout: Kd (nM)
Report the figure in nM without appending any unit label.

Here are 2 compounds together with their reported answers.
>>> value("CCC[C@H]1C(=O)N[C@@H]([C@@H](C)CC)C(=O)N(C)CC(=O)N(C)[C@H]2C/C=C\\CCN(C2=O)[C@@H](Cc2ccc(C)cc2)C(=O)N(C)CC(=O)N[C@@H](CCc2cc(F)c(C(F)(F)F)c(F)c2)C(=O)N2C[C@@H](C)C[C@H]2C(=O)NC2(CCC2)C(=O)N(C)[C@@H](C2CCCC2)C(=O)N(C)[C@H](C(=O)N(C)CC)CC(=O)N1C")
0.11
>>> value("CCO[C@@H]1C[C@H]2C(=O)NC3(CCC3)C(=O)N(C)[C@@H](C3CCCC3)C(=O)N(C)[C@H](C(=O)N3CCC3)CC(=O)N(C)[C@@H](CC)C(=O)N[C@@H]([C@@H](C)CC)C(=O)N(C)CC(=O)N(C)[C@H]3C/C=C\\CCN(C3=O)[C@@H](CC3CCCCC3)C(=O)N(C)CC(=O)N[C@@H](CCc3cc(F)c(C(F)(F)F)c(F)c3)C(=O)N2C1")
0.27

--- query ---
Quick one: Kd for CCO[C@@H]1C[C@H]2C(=O)NC3(CCC3)C(=O)N(C)[C@@H](C3CCCC3)C(=O)N(C)[C@H](C(=O)N3CCCC3)CC(=O)N(C)[C@@H](CC)C(=O)N[C@@H]([C@@H](C)CC)C(=O)N(C)CC(=O)N(C)[C@H]3C/C=C\CCN(C3=O)[C@@H](CC3CCC(F)(F)CC3)C(=O)N(C)CC(=O)N[C@@H](CCc3cc(F)c(C(F)(F)F)c(F)c3)C(=O)N2C1 ?
0.13

* * *

biological target: GDP-bound KRAS wild-type protein (Homo sapiens, UniProt P01116); assay: Binding to KRAS by surface plasmon resonance (SPR), dissociation constant KD; details: Single Cycle Kinetics
One threshold, 0.7 nM, splits the recorded Kd values: lower ones are Yes, equal or higher ones are No.

Example cases with answers are listed next.
>>> category("CCC[C@@H]1NC(=O)C[C@@H](C(=O)N(C)C)N(C)C(=O)[C@H](C2CCCC2)N(C)C(=O)C2(CC(C)(C)C2)NC(=O)[C@@H]2C[C@@H](OCC)CN2C(=O)[C@H](CCc2cc(F)c(C(F)(F)F)c(F)c2)NC(=O)CN(C)C(=O)[C@H](Cc2ccc(C(F)(F)F)cc2)N2CC/C=C\\C[C@@H](C2=O)N(C)C(=O)CN(C)C(=O)[C@H]([C@@H](C)CC)NC1=O")
"Yes"
>>> category("C#CC[C@H]1C(=O)N[C@@H]([C@@H](C)CC)C(=O)N2CCC[C@H]2C(=O)N(C)[C@H]2C/C=C\\CCN(C2=O)[C@@H](Cc2ccc(C(F)(F)F)cc2)C(=O)N(C)CC(=O)N[C@@H](CCc2cc(F)c(C(F)(F)F)c(F)c2)C(=O)N2C[C@H](OCC)C[C@H]2C(=O)N(C)C2(CCC2)C(=O)N(C)[C@@H](C2CCCC2)C(=O)N(C)[C@H](C(=O)N(C)C)CC(=O)N1C")
"Yes"

Does the reported Kd of the following compound sit strictly below 0.7 nM? CCO[C@@H]1C[C@H]2C(=O)NC3(CCCC3)C(=O)N(C)[C@@H](C3CCCC3)C(=O)N(C)[C@H](C(=O)N(C)C)CC(=O)N(C)[C@@H](CC(C)C)C(=O)N[C@@H]([C@@H](C)CC)C(=O)N(C)CC(=O)N(C)[C@H]3C/C=C\CCN(C3=O)[C@@H](Cc3ccc(C(F)(F)F)cc3)C(=O)N(C)CC(=O)N[C@@H](CCc3cc(F)c(C(F)(F)F)c(F)c3)C(=O)N2C1
Yes

Problem: For the compound CCC(CC)[C@H]1C(=O)N(C)[C@H](C(=O)N(C)C)CC(=O)N(C)[C@@H](CC2CC2)C(=O)N[C@@H]([C@H](C)CC)C(=O)NCC(=O)N(C)[C@H]2C/C=C\CCN(C2=O)[C@@H](Cc2ccc(C(F)F)cc2)C(=O)N(C)CC(=O)N[C@@H](CCc2ccc(Cl)c(C(F)(F)F)c2)C(=O)N2C[C@H](OC(C)C)C[C@H]2C(=O)N(C)C2(CC(C)(C)C2)C(=O)N1C , is Kd under 0.7 nM?
No

Quick check: Kd of CCCO[C@@H]1C[C@H]2C(=O)NC3(CC(C)(C)C3)C(=O)N(C)[C@@H](C3CCCC3)C(=O)N(C)[C@H](C(=O)N(C)CC)CC(=O)N(C)[C@@H](COCC)C(=O)N[C@@H]([C@@H](C)CC)C(=O)N3CCC[C@H]3C(=O)N(C)[C@H]3C/C=C\CCN(C3=O)[C@@H](Cc3ccc(C(F)(F)F)cc3)C(=O)N(C)CC(=O)N[C@@H](CCc3ccc(C(F)(F)F)c(OC)c3)C(=O)N2C1 under 0.7 nM?
No

Source: patent EP4603105A1
